Recorded cell number by entry
test system: TDF; assay: cell number relative to DMSO (% of DMSO); higher = more cells (less growth inhibition / toxicity); details: concentration: 10 µM; 24 h
Would you mind answering with just the numeric figure?

Some entries whose results are on file:
{"Compound": "CC(=O)C1CCC2C3CCC4=CC(=O)CCC4(C)C3CCC12C (centres undefined) [Progesterone]", "cell number": 99.1}
{"Compound": "Cc1cc(C(C)Nc2ccccc2)c2nc(N3CCOCC3)cc(=O)n2c1 (centres undefined)", "cell number": 109}
{"Compound": "N=C1Sc2ccccc2C2=NCCCN12", "cell number": 99.9}

query: Please give the documented cell number of CCCCCC=CCC=CCC=CCCCCCCC(=O)O [Dihomo-γ-linolenic acid]
result: 98.6

query: Please give the documented cell number of CC(=O)C1CCC2C3CC=C4CC(O)CCC4(C)C3CCC12C (centres undefined) [Pregnenolone]
result: 102

query: Please give the documented cell number of N[C@@H](Cc1c[nH]c2ccccc12)C(=O)O [L-Tryptophan]
result: 103

query: Please give the documented cell number of N#CC(=C(N)Sc1ccc(N)cc1)c1ccccc1C(F)(F)F [MEK1/2 Inhibitor]
result: 111

query: Please give the documented cell number of COc1ccc2c(c1)c(CC(=O)OCC(=O)O)c(C)n2C(=O)c1ccc(Cl)cc1 [Acemetacin]
result: 94.4

query: Please give the documented cell number of CCCCCCCCCCCCCCCCOCC(COP(=O)([O-])OCC[N+](C)(C)C)OC(=O)NC (centres undefined)
result: 95.7

query: Please give the documented cell number of CN(C)CCC=C1c2ccccc2COc2ccccc21.Cl [Doxepin hydrochloride]
result: 95.2

query: Please give the documented cell number of CS(=O)(=O)O.CSc1ccc2c(c1)C(N1CCN(C)CC1)Cc1ccccc1S2 (centres undefined) [Methiothepin mesylate]
result: 102

query: Please give the documented cell number of O=C(O)CO.[NH2-].[NH2-].[Pt+2] [Nedaplatin]
result: 92.6

query: Please give the documented cell number of N#Cc1c(-c2ccccc2)no[n+]1[O-] [4-Phenyl-3-furoxancarbonitrile]
result: 93.3

query: Please give the documented cell number of CC(C)NNC(=O)c1ccncc1 [Iproniazid]
result: 103

----------
test system: HCC1569; test: cell number relative to DMSO (% of DMSO); higher = more cells (less growth inhibition / toxicity); details: concentration: 10 µM; 24 h
Measure: cell number
Would you mind answering with just the numeric figure?

{"Molecule": "CC(=O)C1=C(O)C=C2Oc3c(C(C)=O)c(O)c(C)c(O)c3C2(C)C1=O (single isomer, unassigned; (+)) [(+)-Usnic acid]", "Reported": 100}
{"Molecule": "NCC1OC(OC2C(CO)OC(OC3C(O)C(N)CC(N)C3OC3OC(CN)C(O)C(O)C3N)C2O)C(N)C(O)C1O (centres undefined)", "Reported": 99.6}
{"Molecule": "O=C(c1ccc(F)cc1)C1CCN(CCn2c(=O)[nH]c3ccccc3c2=O)CC1", "Reported": 101}

query: Please give the documented cell number of c1ccc(C2CN3CCSC3=N2)cc1 (centres undefined)
result: 98.3

----------
tested on: TDF; assay: cell number relative to DMSO (% of DMSO); higher = more cells (less growth inhibition / toxicity); settings: concentration: 10 µM; 24 h
Measure: cell number
Would you mind answering with just the numeric figure?

Some entries whose results are on file:
{"Compound": "CC(=O)C(C)=O", "cell number": 103}
{"Compound": "C#CC(N)CCC(=O)O (stereo unspecified)", "cell number": 99.9}
{"Compound": "CCCCCCCOc1cc2c(cc1/C(C)=C/c1ccc(C(=O)O)cc1)C(C)(C)CCS2(=O)=O", "cell number": 101}
{"Compound": "Cc1cc2nc3c(=O)[nH]c(=O)nc-3n(C)c2cc1C=O", "cell number": 97.8}
{"Compound": "Nc1nc2ccc(OC(F)(F)F)cc2s1", "cell number": 98.6}
{"Compound": "Cc1cnc(-c2cc(N3CCN(C(=O)CCS(C)(=O)=O)CC3)ncc2Cl)c(C)c1.Cl", "cell number": 103}
{"Compound": "O=C(O)CCC(=O)N1CCC[C@H]1C(=O)O", "cell number": 100}
{"Compound": "CC(C)(C#N)c1cc(Cn2cncn2)cc(C(C)(C)C#N)c1", "cell number": 101}

query: Please give the documented cell number of `O=c1c(-c2ccc(O)cc2)coc2cc(O)ccc12`
result: 107

query: Please give the documented cell number of COC(=O)C1=C(C)NC(C)=C(C(=O)OCCN2CCN(C(c3ccccc3)c3ccccc3)CC2)C1c1cccc([N+](=O)[O-])c1 (stereo unspecified)
result: 109

query: Please give the documented cell number of COc1ccccc1CNCCCCCCNCCCCCCCCNCCCCCCNCc1ccccc1OC.Cl.Cl.Cl.Cl [Methoctramine tetrahydrochloride]
result: 87.6

----------
system: HCC1569; test: H1.0 immunofluorescence intensity relative to DMSO (% of DMSO); higher = stronger H1.0 induction, active = 140 or more; details: concentration: 10 µM; 24 h
Recorded H1.0 immunofluorescence intensity by entry
Would you mind answering with just the numeric figure?

{"Compound": "O=c1[nH]c2cc(C(F)(F)F)ccc2n1-c1cc(C(F)(F)F)ccc1O", "Test target": "HCC1569", "Measure": "H1.0 immunofluorescence intensity", "Reported": 98.4}
{"Compound": "O=c1[nH]ccc2c(O)cccc12 [1,5-Isoquinolinediol]", "Test target": "HCC1569", "Measure": "H1.0 immunofluorescence intensity", "Reported": 91.6}

query: Please give the documented H1.0 immunofluorescence intensity of `CCCc1cc(=O)oc2c(C(=O)N3CCCc4ccccc43)c(OC)cc(OC)c12`
result: 159

----------
system: HCC1569; assay: H1.0 immunofluorescence intensity relative to DMSO (% of DMSO); higher = stronger H1.0 induction, active = 140 or more; conditions: concentration: 10 µM; 24 h
Could you label it true (1) if measured H1.0 immunofluorescence intensity is 100 or higher, and false (0) otherwise?

Past entries and their recorded results:
{"Molecule": "CC(=O)Oc1ccccc1C(=O)O [Acetylsalicylic acid]", "Class assignment": "false (0)"}
{"Molecule": "COC(C(=O)C(O)C(C)O)C1Cc2cc3cc(OC4CC(OC5CC(O)C(O)C(C)O5)C(O)C(C)O4)c(C)c(O)c3c(O)c2C(=O)C1OC1CC(OC2CC(OC3CC(C)(O)C(O)C(C)O3)C(O)C(C)O2)C(O)C(C)O1 (centres undefined)", "Class assignment": "true (1)"}
{"Molecule": "CC[N+](CC)(CC)CCOc1cccc(OCC[N+](CC)(CC)CC)c1OCC[N+](CC)(CC)CC", "Class assignment": "true (1)"}

query: Kindly determine if H1.0 immunofluorescence intensity recorded for `C=C1NC(=O)C2=C(CCSC2)N1` is above or exactly 100.
result: false (0)

query: Kindly determine if H1.0 immunofluorescence intensity recorded for NCC(O)c1ccc(O)c(O)c1.O=C(O)C(O)C(O)C(=O)O (stereo not drawn) [L(-)-Norepinephrine bitartrate] is above or exactly 100.
result: false (0)

query: Kindly determine if H1.0 immunofluorescence intensity recorded for `CC(C)C[C@@H](C(=O)O)c1cc(-c2ccc(C(F)(F)F)cc2)cc(-c2ccc(C(F)(F)F)cc2)c1` is above or exactly 100.
result: true (1)

query: Kindly determine if H1.0 immunofluorescence intensity recorded for `O=[N+]([O-])c1ccc(-c2nc(-c3ccc(F)cc3)c(-c3ccncc3)[nH]2)cc1` is above or exactly 100.
result: true (1)

query: Kindly determine if H1.0 immunofluorescence intensity recorded for `CN1CCN(C2=c3ccccc3=Nc3ccc(Cl)cc3N2)CC1` is above or exactly 100.
result: true (1)

----------
tested on: TDF; test: cell number relative to DMSO (% of DMSO); higher = more cells (less growth inhibition / toxicity); conditions: concentration: 10 µM; 24 h
Measure: cell number
Would you mind answering with just the numeric figure?

{"Compound": "CCCCCCCCC#CCC#CCC#CCCCC(=O)O [5,8,11-Eicosatriynoic acid]", "Reported": 97.3}
{"Compound": "CN1CCN2c3ccccc3Cc3ccccc3C2C1.Cl (configuration not stated) [Mianserin hydrochloride]", "Reported": 101}
{"Compound": "NC/C=C/C(=O)O [(E)-4-amino-2-butenoic acid]", "Reported": 105}
{"Compound": "Cc1ccc(S(=O)(=O)NC(=O)NN2CCCCCC2)cc1 [Tolazamide]", "Reported": 111}

query: Please give the documented cell number of C=CCCCCCCCCCC(=O)O [11-Dodecenoic acid]
result: 98.7

query: Please give the documented cell number of CCn1c(=O)c2[nH]c(-c3ccccc3)nc2n(CC)c1=O [1,3-Diethyl-8-phenylxanthine]
result: 103

query: Please give the documented cell number of COc1ccc(-c2cc(=O)c3c(O)cc(OC4OC(COC5OC(C)C(O)C(O)C5O)C(O)C(O)C4O)cc3o2)cc1O (configuration not stated) [Diosmin]
result: 107

Cited source for all entries: the supplement of paper PMC7156485
